test: AUC in Sprague-Dawley rat at 5 mg/kg, po; assay type: ADME, organism-based; parameters: dose 5 mg/kg, route oral; settings: plasma
Endpoint Name: AUC (ng·h/mL)
State the answer as a number, implicitly in ng·h/mL.

> print(dat)
                        structure.as.smiles  endpoint.name  measured.result
1  CC(C)CN(c1ccc(C(O)(C(F)(F)F)C(F)(F)F)cc1)S(=O)(=O)c1cccs1            AUC             3200

Could you now consider this next molecule?
[in] # get_value(readout='AUC', item= O=S(=O)(c1ccccc1)N(CC(F)(F)F)c1ccc(C(O)(C(F)(F)F)C(F)(F)F)cc1 )
[out] 5920

----------
target: UniProt:Q13133; test: Activity against LXR alpha transiently transfected in HEK293 cells
Sequence (Q13133 whole entry): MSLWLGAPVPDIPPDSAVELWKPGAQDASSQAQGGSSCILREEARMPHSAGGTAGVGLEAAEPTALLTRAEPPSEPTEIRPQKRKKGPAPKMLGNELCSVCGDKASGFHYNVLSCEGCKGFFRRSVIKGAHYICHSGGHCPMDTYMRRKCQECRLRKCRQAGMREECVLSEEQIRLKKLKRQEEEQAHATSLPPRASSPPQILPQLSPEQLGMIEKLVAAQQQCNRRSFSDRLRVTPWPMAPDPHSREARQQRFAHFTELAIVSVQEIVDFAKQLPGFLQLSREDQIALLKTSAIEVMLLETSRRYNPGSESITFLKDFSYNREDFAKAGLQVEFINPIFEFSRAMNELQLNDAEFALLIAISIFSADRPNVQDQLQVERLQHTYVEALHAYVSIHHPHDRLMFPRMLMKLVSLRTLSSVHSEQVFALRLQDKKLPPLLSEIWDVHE
Endpoint Name: pEC50
// scale note: pEC50 = -log10(conc_M); give the bare number

> print(dat)
                        structure.as.smiles  endpoint.name  measured.result
1  O=S(=O)(c1ccccc1)N1CCc2cc(C(O)(C(F)(F)F)C(F)(F)F)ccc21          pEC50             7.30
2  O=S(=O)(c1ccccc1)N(c1ccc(C(O)(C(F)(F)F)C(F)(F)F)cc1)C1CCCC1          pEC50             8.10
3  CN(c1ccc(C(O)(C(F)(F)F)C(F)(F)F)cc1)S(=O)(=O)c1cccs1          pEC50             6.22

[in] Which pEC50 is reported with UniProt:Q13133 for this entry: O=S(=O)(c1ccccc1)N1CCCc2cc(C(O)(C(F)(F)F)C(F)(F)F)ccc21 ?
[out] 7.52

[in] Now consider CN(c1ccc(C(O)(C(F)(F)F)C(F)(F)F)cc1Cl)S(=O)(=O)c1ccccc1 and answer again.
[out] 6.70

[in] Try this compound next: CN(c1ccc(C(O)(C(F)(F)F)C(F)(F)F)cc1)S(=O)(=O)c1cccc(S(N)(=O)=O)c1
[out] 7.10

[in] And for CN(c1ccccc1)S(=O)(=O)c1ccc(C(O)(C(F)(F)F)C(F)(F)F)cc1 ?
[out] 7.00

[in] Another compound: CN(c1cccc(C(O)(C(F)(F)F)C(F)(F)F)c1)S(=O)(=O)c1ccccc1
[out] 6.00

[in] # repeat for O=S(=O)(Nc1ccc(C(O)(C(F)(F)F)C(F)(F)F)cc1)c1ccccc1
[out] 5.40

[in] Could you do the same for CC(C)CN(c1ccc(C(O)(C(F)(F)F)C(F)(F)F)cc1)S(=O)(=O)c1cccs1 , please?
[out] 7.40

----------
experiment: AUC in mice at 5 mg/kg, po; type: ADME, organism-based; parameters: dose 5 mg/kg, route oral; conditions: mouse, plasma
Endpoint Name: AUC (ng·h/mL)
Just the number please, in ng·h/mL, no unit attached.

[in] # AUC lookup, item O=S(=O)(c1ccccc1)N(CC(F)(F)F)c1ccc(C(O)(C(F)(F)F)C(F)(F)F)cc1 [T091317]
[out] 3420

----------
assay: AUC in dog at 5 mg/kg, po; assay type: ADME, organism-based, Canis lupus familiaris; parameters: dose 5 mg/kg, route oral; conditions: plasma
Endpoint Name: AUC (ng·h/mL)
Lab book: enter the figure in ng·h/mL, no units written.

[in] Would you kindly share the measured AUC for O=S(=O)(c1ccccc1)N(CC(F)(F)F)c1ccc(C(O)(C(F)(F)F)C(F)(F)F)cc1 [T091317] ?
[out] 7300
